Reference source: ChEMBL document CHEMBL1201862

- study-target: UniProt P03070
- Sequence (P03070 whole entry): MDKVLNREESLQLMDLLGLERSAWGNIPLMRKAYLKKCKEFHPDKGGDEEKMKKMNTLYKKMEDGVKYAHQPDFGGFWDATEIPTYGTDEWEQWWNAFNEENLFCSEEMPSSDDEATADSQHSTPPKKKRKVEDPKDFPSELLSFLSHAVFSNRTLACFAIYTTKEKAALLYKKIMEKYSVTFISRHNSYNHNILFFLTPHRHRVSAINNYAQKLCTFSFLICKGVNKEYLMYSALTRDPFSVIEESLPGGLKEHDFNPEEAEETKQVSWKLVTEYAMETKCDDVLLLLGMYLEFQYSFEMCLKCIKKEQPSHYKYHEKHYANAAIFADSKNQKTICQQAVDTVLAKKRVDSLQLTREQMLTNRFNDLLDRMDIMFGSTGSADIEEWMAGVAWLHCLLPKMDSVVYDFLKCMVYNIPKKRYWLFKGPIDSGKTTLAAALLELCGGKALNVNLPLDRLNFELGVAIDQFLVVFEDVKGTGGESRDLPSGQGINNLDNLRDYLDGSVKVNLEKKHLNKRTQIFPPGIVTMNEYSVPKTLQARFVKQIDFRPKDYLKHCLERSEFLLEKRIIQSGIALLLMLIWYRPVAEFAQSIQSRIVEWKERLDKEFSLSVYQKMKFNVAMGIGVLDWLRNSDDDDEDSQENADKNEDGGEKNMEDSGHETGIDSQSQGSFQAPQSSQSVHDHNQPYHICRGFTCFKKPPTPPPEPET
- Format: functional, Betapolyomavirus macacae
Activity calls are given as the source filed them.
reported-endpoint: IC50

Task: Provide one value: measured IC50 of CCCc1nc2ccccc2c(=O)n1/N=C/c1ccc(O)c(O)c1
Output: 10.5 µM (active)

Task: Determine from records and report IC50 for C=CCOc1ccc(CNc2ccc3[nH]c(O)nc3c2)cc1OCC
Output: 20.5 µM (active)

Task: Please report the measured IC50 for O=C(O)CN1C(=O)/C(=C\C(Br)=C\c2ccccc2)SC1=S
Output: 53.4 µM (active)

Task: Supply IC50 value. Item: N#C/C(=C\c1ccc(O)c(O)c1)C(=O)NCc1ccccc1
Output: 14.6 µM (active)

Task: Recall and state the measured IC50 for O=c1c(-c2ccc(O)cc2)coc2cc(O[C@@H]3O[C@H](CO)[C@@H](O)[C@H](O)[C@H]3O)ccc12 [DAIDZIN] .
Output: > 100 µM (active)

Task: Look up IC50 of O=C(COc1ccccc1[N+](=O)[O-])N/N=C/c1ccc(O)cc1 and report it.
Output: 9.26 µM (active)

Task: Give the measured IC50 for COc1cc(/C=N/NC(=O)c2ccncc2)ccc1O
Output: 6.8 µM (active)

Task: Fill in reported IC50 for this entry: Oc1nc2cc(NCc3ccc(F)cc3)ccc2[nH]1
Output: 13.2 µM (active)

Task: Consider the molecule C1=Cc2ccccc2Nc2ccccc21 [IMINOSTILBENE] . State its measured IC50.
Output: 14.3 µM (active)

Task: Provide only the value of recorded IC50 for Oc1ccc(-c2[nH]ncc2-c2cccc3cccnc23)c(O)c1
Output: 25.7 µM (active)
